# assay_notes: Partition coefficient (logD7.0)
# Format: physicochemical
# condition_parameters: octanol/water, pH 7
readout: logD
Numbers only.

# count of solved cases: 5
>>> observed_measurement("COC(=O)C(C)NP(=O)(OC[C@@H]1C=C[C@H](n2cc(C)c(=O)[nH]c2=O)O1)Oc1ccccc1Cl (stereo partly specified)")
1.37
>>> observed_measurement("COC(=O)C(C)NP(=O)(OC[C@@H]1C=C[C@H](n2cc(C)c(=O)[nH]c2=O)O1)Oc1ccc([N+](=O)[O-])cc1 (stereo partly specified)")
0.9
>>> observed_measurement("Cc1cn([C@H]2C=C[C@@H](CO)O2)c(=O)[nH]c1=O [STAVUDINE]")
-0.59
>>> observed_measurement("COC(=O)C(C)NP(=O)(OC[C@@H]1C=C[C@H](n2cc(C)c(=O)[nH]c2=O)O1)Oc1cccc(C(F)(F)F)c1 (stereo partly specified)")
1.57
>>> observed_measurement("COC(=O)C(C)NP(=O)(OC[C@@H]1C=C[C@H](n2cc(C)c(=O)[nH]c2=O)O1)Oc1ccc(Cl)c(Cl)c1 (stereo partly specified)")
2.15

// next entry
For COC(=O)C(C)NP(=O)(OC[C@@H]1C=C[C@H](n2cc(C)c(=O)[nH]c2=O)O1)Oc1ccc(Cl)cc1 (stereo partly specified) , what is its reported logD?
1.43
